In this section, each of the compounds is paired with its reported TGI.
- Tested on: A549 NSCLC
- method: NCI tumour cell line growth inhibition, 48 h

{"columns": ["compound", "TGI"],
 "data": [
  ["COc1ccc(/C=c2\\s/c(=C3/SC(=S)N(c4ccccc4)C3=O)n(-c3ccccc3)c2=O)cc1", "> 100 µM"],
  ["NCCCCNCCCNC(=O)c1nc(-c2nc(CCN)sc2Cl)sc1Cl", "> 100 µM"],
  ["C=C1OC(c2ccccc2NC)=NC12CCCCC2", "> 100 µM"]
]}

## Task Look up and report measured TGI (A549 NSCLC) for the following compound: Cc1sc2nc3c4ccccc4c(NCCCN(C)C)nn3c(=O)c2c1C
## Result 20.4 µM

## Task Look up and report measured TGI (A549 NSCLC) for the following compound: CCCOc1ccc2nc(NC(=O)OC)[nH]c2c1
## Result > 100 µM

## Task Look up and report measured TGI (A549 NSCLC) for the following compound: Nc1ccccc1C#C/C=C\C#Cc1ccccc1
## Result 77.7 µM

## Task Look up and report measured TGI (A549 NSCLC) for the following compound: Cc1[nH]c(=O)nc(NCCNCCO)c1C(=O)Nc1cccc2cc3ccccc3cc12
## Result > 100 µM

* * *

- Tested on: OVCAR-3 ovarian
- method: NCI tumour cell line growth inhibition, 48 h
assay_endpoint: GI50

{"columns": ["compound", "GI50"],
 "data": [
  ["Cc1nc2sccn2c1-c1csc(Nc2cccc(Cl)c2C)n1", "5.23 µM"],
  ["O=C1NC(=S)S/C1=C(/C=C(\\CC(=O)c1ccccc1)c1ccc(Cl)cc1)c1ccccc1", "24.2 µM"],
  ["N#CCCN(CCC#N)c1ccc(C(Sc2ccccc2)C(NC(=O)c2cc([N+](=O)[O-])ccc2Cl)C(=O)Sc2ccccc2)cc1 (stereo not given)", "2.14 µM"],
  ["Nc1ccccc1C#C/C=C\\C#Cc1ccccc1[N+](=O)[O-]", "4.03 µM"]
]}

## Task Given CN(C)CCCNC(=O)c1ccc2c(c1)oc1cc3ccccc3c(=O)n12 , respond with its GI50.
## Result 9.24 µM

* * *

- System: U251 CNS
Assign a class; possible classes are active, inactive

Consider the following illustrative entries.
{"columns": ["compound", "system_tested", "group_label"],
 "data": [
  ["CCOc1cccc(/C=N/NC(=O)C(=O)Nc2cccc(C(F)(F)F)c2)c1O", "U251 CNS", "inactive"],
  ["COc1cc(-c2n/c(=C\\c3c(O)[nH]c4ccc(Cl)cc34)cc3c2=Nc2ccccc2-3)ccc1F", "U251 CNS", "inactive"],
  ["O=C(O)c1ccc2c(c1)CCCC(c1ccc(Cl)cc1Cl)=C2c1ccc(O[C@H]2CCN(CCCF)C2)cc1", "U251 CNS", "inactive"],
  ["CC[PH+](CC)CC.O=COC1OC([S-])C(OC=O)C(OC=O)C1OC=O.[Au+] (stereo not given)", "U251 CNS", "active"]
]}

For the next question, use this compound.
## Task // param item: O=C1c2cc(Cl)ccc2-c2c1c1ccc([N+](=O)[O-])cc1c(=O)n2CCCBr ; yields the recorded call
## Result inactive

* * *

In this section, each of the compounds is paired with its reported TGI.
- Test system: BT-549 breast
- method: NCI tumour cell line growth inhibition, 48 h

## Task Given CN1C(=O)N(C)C(O)C(Cl)(Br)C1=O (centres undefined) , respond with its TGI.
## Result > 100 µM

## Task Given Cc1cc(C)c(S(=O)(=O)N(CCCN)OCCCON(CCCN)S(=O)(=O)c2c(C)cc(C)cc2C)c(C)c1 , respond with its TGI.
## Result 8.64 µM

* * *

In this section, each of the compounds is paired with its reported TGI.
- Tested on: SK-OV-3 ovarian
- method: NCI tumour cell line growth inhibition, 48 h

Known TGI results, listed for orientation:
{"columns": ["compound", "reported_result"],
 "data": [
  ["COC(=O)[C@@H]1CCCCC[C@H]2C(CO)=C(C)C(=O)C12 (stereo not given in full)", "> 100 µM"],
  ["CC(=O)OCC1OC(n2c(-c3ccccc3)c(N=Nc3ccccc3)c(C)c(C#N)c2=S)C(OC(C)=O)C(OC(C)=O)C1OC(C)=O (stereo not given)", "> 100 µM"],
  ["O=c1cccc(C2CC(CO)C3CCCCN3C2)[nH]1 (stereo not given)", "> 100 µM"]
]}

## Task Given C/C(=N\N(c1ccccc1)c1ccccc1)c1c(O)cc(C)oc1=O , respond with its TGI.
## Result > 100 µM

## Task Given Cc1cc(C)c(C(=O)c2no[n+]([O-])c2C(=O)c2c(C)cc(C)c(Br)c2C)c(C)c1Br , respond with its TGI.
## Result 52.3 µM

* * *

- Tested on: OVCAR-8 ovarian
- method: NCI tumour cell line growth inhibition, 48 h
In this section, each of the compounds is paired with its reported TGI.

Known TGI results, listed for orientation:
{"columns": ["compound", "TGI"],
 "data": [
  ["C=C1C(=O)O[C@H]2[C@H]1CC/C(COC(=O)c1cc3cc(Cl)ccc3[nH]1)=C\\CC[C@@]1(C)O[C@@H]21", "3.32 µM"],
  ["Cn1c(=O)c(-c2ccccc2)c(O)c2ccccc21", "> 100 µM"],
  ["Nc1ccccc1C#C/C=C\\C#Cc1ccccc1", "> 100 µM"]
]}

## Task Given Cn1c(=O)c2c(nc3n(Cc4ccccc4)c(=O)c(NCCCBr)cn23)n(C)c1=O , respond with its TGI.
## Result > 100 µM

## Task Given CCn1c2ccc(C(=O)CCCN3CCCCC3)cc2c2cc(C(=O)CCCN3CCCCC3)ccc21 , respond with its TGI.
## Result 6.6 µM

## Task Given CCN(CC)C(=S)Oc1cc2oc(=O)cc(C)c2cc1Cl , respond with its TGI.
## Result > 100 µM

## Task Given CC(CCC(=O)O)C(=O)O (stereo unspecified) , respond with its TGI.
## Result > 100 µM

## Task Given C=C(C)OCOCCOC , respond with its TGI.
## Result > 100 µM

## Task Given N#C/C(C(=O)Nc1ccc(Cl)cc1)=C(/N)N1CCCC1 , respond with its TGI.
## Result > 100 µM

## Task Given CSc1nc(NC(C)C)c2c(n1)Sc1nc3ccccc3n1N=C2 , respond with its TGI.
## Result 28.8 µM

## Task Given O=C(c1ccncc1)n1nc(-c2ccccc2)c(N=Nc2ccccc2[N+](=O)[O-])c1-c1ccccc1 , respond with its TGI.
## Result > 100 µM

## Task Given N.N.N.N.O=C([O-])C(Cl)Cl.O=C([O-])C(Cl)Cl.[Co+3].[O-][Cl+3]([O-])([O-])[O-] , respond with its TGI.
## Result > 100 µM

## Task Given CC(=O)OCC(OC(C)=O)C(OC(C)=O)C(OC(C)=O)C(=O)CNn1c(-c2ccccc2Cl)nc2ccccc2c1=O (stereo unspecified) , respond with its TGI.
## Result > 100 µM

## Task Given NC(=S)NNc1c([N+](=O)[O-])cnn(-c2ccccc2)c1=O , respond with its TGI.
## Result 31.8 µM

* * *

In this section, each of the compounds is paired with its reported TGI.
- Tested on: HS 578T breast
- method: NCI tumour cell line growth inhibition, 48 h
Response body: numeric value in µM, unit text excluded.

Known TGI results, listed for orientation:
{"columns": ["compound", "system_tested", "uom", "reported_result"],
 "data": [
  ["OCCNc1ncnc2c1ncn2Cc1cccc(COc2cccc(OCc3cccc(Cn4cnc5c(NCCO)ncnc54)c3)c2)c1", "HS 578T breast", "µM", 28.7],
  ["CN1C(=O)N(C)C2C1NN=c1s/c(=C\\c3ccc(F)cc3)c(=O)n12 (stereo unspecified)", "HS 578T breast", "µM", 7.31],
  ["COc1cc2c(=O)n(CCN)c3c4cc5c(cc4ccc3c2cc1OC)OCO5", "HS 578T breast", "µM", 11.7],
  ["COc1ccc2[nH]c(O)c(C(=Nc3ccc(N(C)C(=O)CN4CCN(C)CC4)cc3)c3ccccc3)c2c1", "HS 578T breast", "µM", 4.67],
  ["C/C(Cl)=N\\OC(=O)Nc1ccc(C)cc1", "HS 578T breast", "µM", 83]
]}

## Task Look up and report measured TGI (HS 578T breast) for the following compound: Fc1cc2[nH]ncc2c2c3c(c(-c4cn[nH]c4C(F)(F)F)nc12)C1CCC3C1 (stereo unspecified)
## Result 2.67

## Task Look up and report measured TGI (HS 578T breast) for the following compound: CCn1c2ccc(O)cc2c2c(C)c3c[n+](C)ccc3c(C)c21
## Result 4.98

## Task Look up and report measured TGI (HS 578T breast) for the following compound: Cc1cc(C)c(S(=O)(=O)N(CCCN)OCCCON(CCCN)S(=O)(=O)c2c(C)cc(C)cc2C)c(C)c1
## Result 3.16

## Task Look up and report measured TGI (HS 578T breast) for the following compound: COc1cc(-c2cn(-c3ccc(Cl)c(Cl)c3)c(=O)n2C(C)=O)cc(OC)c1OC
## Result 29.3

## Task Look up and report measured TGI (HS 578T breast) for the following compound: O=C(O)c1ccc2c(c1)CCCC(c1ccc(Cl)cc1Cl)=C2c1ccc(O[C@H]2CCN(CCCF)C2)cc1
## Result 31.8

## Task Look up and report measured TGI (HS 578T breast) for the following compound: Cc1ccc(-c2csc(NC(=O)CN3CCN(c4cc5c(cc4F)c(=O)c(C(=O)O)cn5C4CC4)CC3)n2)cc1
## Result 31.7

Attribution: PubChem BioAssay (NCI)
